biological target: Coagulation factor VII/tissue factor (Homo sapiens) (UniProt P08709+P13726); test: Anticoagulant activity in plasma by PT assay; format: functional, cell-free
Criterion: 2PT strictly less than 20 µM. Met: T. Not met: F.

# smiles, cat
measured = [
    ("CN1CCN(Cc2ccccc2-c2ccc(N3CCc4c(C(F)(F)F)nn(-c5ccc6onc(N)c6c5)c4C3=O)cc2)CC1", "F"),
    ("CCN(CC)Cc1ccccc1-c1ccc(N2CCc3c(C(F)(F)F)nn(-c4ccc5onc(N)c5c4)c3C2=O)cc1", "T"),
    ("CN(C)Cc1ccccc1-c1ccc(N2CC=Cc3c(C(F)(F)F)nn(-c4ccc5onc(N)c5c4)c3C2=O)c(F)c1", "T"),
    ("CNCc1ccccc1-c1ccc(N2CCc3c(C(F)(F)F)nn(-c4ccc5onc(N)c5c4)c3C2=O)cc1", "T"),
    ("CN(C)Cc1ccccc1-c1ccc(NC(=O)c2cc(C(F)(F)F)nn2-c2ccc3onc(N)c3c2)c(F)c1", "T"),
    ("CN(C)Cc1ccccc1-c1ccc(N2CNc3c(C(F)(F)F)nn(-c4ccc5onc(N)c5c4)c3C2=O)cc1", "T"),
    ("Nc1noc2ccc(-n3nc(C(F)(F)F)c4c3C(=O)N(c3ccc(-c5ccccc5CN5CCOCC5)cc3)CC4)cc12", "F"),
    ("CN(C)Cc1nccn1-c1ccc(NC(=O)c2cc(C(F)(F)F)nn2-c2ccc3onc(N)c3c2)c(F)c1", "T"),
]

###

bioavailability values by entry
assay: Oral bioavailability in orally dosed dog; type: ADME, organism-based, Canis lupus familiaris; settings: in vivo
testReadout: bioavailability

# smiles, valueReported
rows = [
    ("Nc1noc2ccc(-n3nc(C(F)(F)F)c4c3C(=O)N(c3ccc(-c5ccccc5CN5CC[C@@H](O)C5)cc3F)CC4)cc12", "81%"),
    ("Nc1noc2ccc(-n3nc(C(F)(F)F)c4c3C(=O)N(c3ccc(-c5ccccc5CN5CCCC5)cc3)CC4)cc12", "37%"),
    ("Nc1noc2ccc(-n3nc(C(F)(F)F)c4c3C(=O)N(c3ccc(-c5ccccc5CN5CCCC5)cc3F)CC4)cc12", "85%"),
    ("Cc1nn(-c2ccc3onc(N)c3c2)c2c1CCN(c1ccc(-c3ccccc3CN3CC[C@@H](O)C3)cc1)C2=O", "44%"),
    ("Cc1nn(-c2ccc3onc(N)c3c2)c2c1CCN(c1ccc(-c3ccccc3CN3CCCC3)cc1)C2=O", "10%"),
]

###

experiment: Volume of distribution in dog; type: ADME, organism-based, Canis lupus familiaris; details: in vivo, read-out: Vdss
Vd values by entry
testReadout: Vd (L/kg)

# smiles, testReadout, valueReported
rows = [
    ("Cc1nn(-c2ccc3onc(N)c3c2)c2c1CCN(c1ccc(-c3ccccc3CN(C)C)cc1)C2=O", "Vd", 6.4),
    ("Cc1nn(-c2ccc3onc(N)c3c2)c2c1CCN(c1ccc(-c3ccccc3CN3CC[C@@H](O)C3)cc1F)C2=O", "Vd", 1.1),
    ("CN(C)Cc1ccccc1-c1ccc(N2CCc3c(C(F)(F)F)nn(-c4ccc5onc(N)c5c4)c3C2=O)c(F)c1", "Vd", 8.8),
    ("CN(C)Cc1ccccc1-c1ccc(N2CCc3c(C(F)(F)F)nn(-c4ccc5onc(N)c5c4)c3C2=O)cc1", "Vd", 4.5),
    ("Cc1nn(-c2ccc3onc(N)c3c2)c2c1CCN(c1ccc(-c3ccccc3CN3CC[C@@H](O)C3)cc1)C2=O", "Vd", 0.75),
    ("Nc1noc2ccc(-n3nc(C(F)(F)F)c4c3C(=O)N(c3ccc(-c5ccccc5CN5CCC(O)CC5)cc3)CC4)cc12", "Vd", 1.4),
    ("Nc1noc2ccc(-n3nc(C(F)(F)F)c4c3C(=O)N(c3ccc(-c5ccccc5CN5CCCC5)cc3F)CC4)cc12", "Vd", 4.8),
    ("Cc1nn(-c2ccc3onc(N)c3c2)c2c1CCN(c1ccc(-c3ccccc3CN3CCCC3)cc1)C2=O", "Vd", 3.3),
]

###

test: Apparent permeability in Caco-2 cells; format: ADME, cell-based; settings: human
Quick rule: Papp of at least 6 ×10⁻⁶ cm/s means Met, below that means Not met.

# smiles, cat
records = [
    ("CN(C)Cc1ccccc1-c1ccc(N2CCc3c(C(F)(F)F)nn(-c4ccc5onc(N)c5c4)c3C2=O)c(F)c1", "Met"),
    ("Nc1noc2ccc(-n3nc(C(F)(F)F)c4c3C(=O)N(c3ccc(-c5ccccc5CN5CC[C@@H](O)C5)cc3F)CC4)cc12", "Met"),
    ("Cc1nn(-c2ccc3onc(N)c3c2)c2c1CCN(c1ccc(-c3ccccc3CN3CC[C@@H](O)C3)cc1)C2=O", "Met"),
    ("Nc1noc2ccc(-n3nc(C(F)(F)F)c4c3C(=O)N(c3ccc(-c5ccccc5CN5CC[C@@H](O)C5)cc3)CC4)cc12", "Not met"),
    ("Cc1nn(-c2ccc3onc(N)c3c2)c2c1CCN(c1ccc(-c3ccccc3CN(C)C)cc1)C2=O", "Met"),
    ("Nc1noc2ccc(-n3nc(C(F)(F)F)c4c3C(=O)N(c3ccc(-c5ccccc5CN5CCC(O)CC5)cc3)CC4)cc12", "Not met"),
    ("CN(C)Cc1ccccc1-c1ccc(N2CCc3c(C(F)(F)F)nn(-c4ccc5onc(N)c5c4)c3C2=O)cc1", "Not met"),
]

###

target: Chymotrypsinogen B (Homo sapiens)
Sequence (P17538 34-164 limits assumed, other chains not shown): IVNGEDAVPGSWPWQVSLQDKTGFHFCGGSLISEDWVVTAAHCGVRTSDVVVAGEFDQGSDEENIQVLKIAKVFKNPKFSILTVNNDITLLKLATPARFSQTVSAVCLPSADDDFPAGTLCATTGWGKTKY
Sequence (P17538 167-263 limits assumed, other chains not shown): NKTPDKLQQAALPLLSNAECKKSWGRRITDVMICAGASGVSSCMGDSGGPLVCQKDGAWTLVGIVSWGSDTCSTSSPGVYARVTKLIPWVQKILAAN
testReadout: Ki

# smiles, valueReported
rows = [
    ("Nc1noc2ccc(-n3nc(C(F)(F)F)c4c3C(=O)N(c3ccc(-c5ccccc5CN5CC[C@@H](O)C5)cc3)CC4)cc12", "> 2800 nM"),
]

###

experiment: Half life in orally dosed dog; format: ADME, organism-based, Canis lupus familiaris; settings: in vivo, po

# smiles, half-life / h
measured = [
    ("Cc1nn(-c2ccc3onc(N)c3c2)c2c1CCN(c1ccc(-c3ccccc3CN3CC[C@@H](O)C3)cc1)C2=O", 1.7),
    ("Nc1noc2ccc(-n3nc(C(F)(F)F)c4c3C(=O)N(c3ccc(-c5ccccc5CN5CCCC5)cc3)CC4)cc12", 5.3),
    ("Cc1nn(-c2ccc3onc(N)c3c2)c2c1CCN(c1ccc(-c3ccccc3CN3CCCC3)cc1)C2=O", 1.7),
    ("CN(C)Cc1ccccc1-c1ccc(N2CCc3c(C(F)(F)F)nn(-c4ccc5onc(N)c5c4)c3C2=O)c(F)c1", 6.4),
    ("Nc1noc2ccc(-n3nc(C(F)(F)F)c4c3C(=O)N(c3ccc(-c5ccccc5CN5CC[C@@H](O)C5)cc3F)CC4)cc12", 5.9),
    ("Cc1nn(-c2ccc3onc(N)c3c2)c2c1CCN(c1ccc(-c3ccccc3CN3CC[C@@H](O)C3)cc1F)C2=O", 1.1),
    ("Nc1noc2ccc(-n3nc(C(F)(F)F)c4c3C(=O)N(c3ccc(-c5ccccc5CN5CC[C@H](O)C5)cc3)CC4)cc12", 4.5),
    ("CNCc1ccccc1-c1ccc(N2CCc3c(C(F)(F)F)nn(-c4ccc5onc(N)c5c4)c3C2=O)cc1", 7.4),
    ("Nc1noc2ccc(-n3nc(C(F)(F)F)c4c3C(=O)N(c3ccc(-c5ccccc5CN5CCCC5)cc3F)CC4)cc12", 4.9),
    ("Nc1noc2ccc(-n3nc(C(F)(F)F)c4c3C(=O)N(c3ccc(-c5ccccc5CN5CCC(O)CC5)cc3)CC4)cc12", 6.4),
    ("Cc1nn(-c2ccc3onc(N)c3c2)c2c1CCN(c1ccc(-c3ccccc3CN(C)C)cc1)C2=O", 1.6),
    ("CN(C)Cc1ccccc1-c1ccc(N2CCc3c(C(F)(F)F)nn(-c4ccc5onc(N)c5c4)c3C2=O)cc1", 3.8),
]

###

assay: Oral bioavailability in orally dosed dog; type: ADME, organism-based, Canis lupus familiaris; settings: in vivo
Quick rule: bioavailability of at least 60% means criterion met, below that means criterion not met.

# smiles, cat
records = [
    ("Nc1noc2ccc(-n3nc(C(F)(F)F)c4c3C(=O)N(c3ccc(-c5ccccc5CN5CC[C@H](O)C5)cc3)CC4)cc12", "criterion not met"),
    ("Cc1nn(-c2ccc3onc(N)c3c2)c2c1CCN(c1ccc(-c3ccccc3CN(C)C)cc1)C2=O", "criterion not met"),
    ("Nc1noc2ccc(-n3nc(C(F)(F)F)c4c3C(=O)N(c3ccc(-c5ccccc5CN5CCC(O)CC5)cc3)CC4)cc12", "criterion met"),
    ("CNCc1ccccc1-c1ccc(N2CCc3c(C(F)(F)F)nn(-c4ccc5onc(N)c5c4)c3C2=O)cc1", "criterion met"),
    ("CN(C)Cc1ccccc1-c1ccc(N2CCc3c(C(F)(F)F)nn(-c4ccc5onc(N)c5c4)c3C2=O)c(F)c1", "criterion met"),
    ("Cc1nn(-c2ccc3onc(N)c3c2)c2c1CCN(c1ccc(-c3ccccc3CN3CC[C@@H](O)C3)cc1F)C2=O", "criterion met"),
    ("CN(C)Cc1ccccc1-c1ccc(N2CCc3c(C(F)(F)F)nn(-c4ccc5onc(N)c5c4)c3C2=O)cc1", "criterion not met"),
    ("Nc1noc2ccc(-n3nc(C(F)(F)F)c4c3C(=O)N(c3ccc(-c5ccccc5CN5CC[C@@H](O)C5)cc3)CC4)cc12", "criterion met"),
]
